Readings of TD50 at 6 h for the listed molecules
Experiment: Emetic activity in dogs
Conditions: dog, in vivo, po, observed for 6 hours; read-out: Emetic activity in dogs ED50
Measured Property: TD50 at 6 h (mg/kg)

| Smiles Code | Measured Property | Value Reported |
| --- | --- | --- |
| CCCN1C[C@H](C(=O)N(C(=O)NC(C)C)C(C)C)C[C@@H]2c3cccc4[nH]cc(c34)C[C@H]21 | TD50 at 6 h | 0.01 |
| CCNC(=O)N(CCCN(C)C)C(=O)[C@@H]1C[C@@H]2c3cccc4[nH]cc(c34)C[C@H]2N(C)C1 | TD50 at 6 h | 0.01 |
| C=CCN1C[C@H](C(=O)N(CCCN(C)C)C(=O)NCC)C[C@@H]2c3cccc4[nH]cc(c34)C[C@H]21 | TD50 at 6 h | 0.02 |

###

Readings of Change in HR for the listed compounds
System: spontaneously hypertensive male rats, strain SHR
Assay: Change in heart rate (HR) in SHR rats
Assay type: in vivo, rat
Settings: 1 mg/kg os, 4th day, 5 hours after dosing
Measured Property: Change in HR (beats/minute)

| Smiles Code | Subject Of Test | Measured Property | Unit Of Measure | Value Reported |
| --- | --- | --- | --- | --- |
| CO[C@]12C[C@@H](C(=O)N(C(=O)NC(C)(C)C)C(C)(C)C)CN(C)[C@@H]1Cc1cn(C)c3cccc2c13 | spontaneously hypertensive male rats, strain SHR | Change in HR | beats/minute | -22 |
| CN1C[C@H](C(=O)N(C(=O)NC(C)(C)C)C(C)(C)C)C[C@@H]2c3cccc4c3c(cn4C)C[C@H]21 | spontaneously hypertensive male rats, strain SHR | Change in HR | beats/minute | -8 |
| CC(C)NC(=O)N(C(=O)[C@@H]1C[C@@H]2c3cccc4[nH]cc(c34)C[C@H]2N(C)C1)C(C)C | spontaneously hypertensive male rats, strain SHR | Change in HR | beats/minute | -30 |

###

Readings of Change in HR for the listed compounds
System: spontaneously hypertensive male rats, strain SHR
Test: Change in heart rate (HR) in SHR rats
Assay type: in vivo, rat
Conditions: 1 mg/kg os, 1st day, 1 hour after dosing

| Smiles Code | Change in HR / beats/minute |
| --- | --- |
| CO[C@]12C[C@@H](C(=O)N(C(=O)NC(C)(C)C)C(C)(C)C)CN(C)[C@@H]1Cc1cn(C)c3cccc2c13 | -20 |
| CN1C[C@H](C(=O)N(C(=O)NC(C)(C)C)C(C)(C)C)C[C@@H]2c3cccc4c3c(cn4C)C[C@H]21 | -22 |
| CC(C)NC(=O)N(C(=O)[C@@H]1C[C@@H]2c3cccc4[nH]cc(c34)C[C@H]2N(C)C1)C(C)C | -30 |

###

Readings of Change in BP for the listed molecules
System: spontaneously hypertensive male rats, strain SHR
Test: Anti-hypertensive activity: change in blood pressure (BP) in SHR rats
Type: in vivo, rat
Settings: 1 mg/kg os, 1st day, 1 hour after dosing

| Molecule | Unit Of Measure | Change in BP |
| --- | --- | --- |
| CN1C[C@H](C(=O)N(C(=O)NC(C)(C)C)C(C)(C)C)C[C@@H]2c3cccc4c3c(cn4C)C[C@H]21 | mmHg | -15 |
| CC(C)NC(=O)N(C(=O)[C@@H]1C[C@@H]2c3cccc4[nH]cc(c34)C[C@H]2N(C)C1)C(C)C | mmHg | -40 |
| NNc1nncc2ccccc12 [Hydralazine, reference compound] | mmHg | -5 |
| CO[C@]12C[C@@H](C(=O)N(C(=O)NC(C)(C)C)C(C)(C)C)CN(C)[C@@H]1Cc1cn(C)c3cccc2c13 | mmHg | -20 |

Source: patent US4526892A
